Measured pIC50 of individual entries
Target: EGFR^T790M (Homo sapiens, UniProt P00533, T790M)
Sequence (P00533 25-1210 T790M): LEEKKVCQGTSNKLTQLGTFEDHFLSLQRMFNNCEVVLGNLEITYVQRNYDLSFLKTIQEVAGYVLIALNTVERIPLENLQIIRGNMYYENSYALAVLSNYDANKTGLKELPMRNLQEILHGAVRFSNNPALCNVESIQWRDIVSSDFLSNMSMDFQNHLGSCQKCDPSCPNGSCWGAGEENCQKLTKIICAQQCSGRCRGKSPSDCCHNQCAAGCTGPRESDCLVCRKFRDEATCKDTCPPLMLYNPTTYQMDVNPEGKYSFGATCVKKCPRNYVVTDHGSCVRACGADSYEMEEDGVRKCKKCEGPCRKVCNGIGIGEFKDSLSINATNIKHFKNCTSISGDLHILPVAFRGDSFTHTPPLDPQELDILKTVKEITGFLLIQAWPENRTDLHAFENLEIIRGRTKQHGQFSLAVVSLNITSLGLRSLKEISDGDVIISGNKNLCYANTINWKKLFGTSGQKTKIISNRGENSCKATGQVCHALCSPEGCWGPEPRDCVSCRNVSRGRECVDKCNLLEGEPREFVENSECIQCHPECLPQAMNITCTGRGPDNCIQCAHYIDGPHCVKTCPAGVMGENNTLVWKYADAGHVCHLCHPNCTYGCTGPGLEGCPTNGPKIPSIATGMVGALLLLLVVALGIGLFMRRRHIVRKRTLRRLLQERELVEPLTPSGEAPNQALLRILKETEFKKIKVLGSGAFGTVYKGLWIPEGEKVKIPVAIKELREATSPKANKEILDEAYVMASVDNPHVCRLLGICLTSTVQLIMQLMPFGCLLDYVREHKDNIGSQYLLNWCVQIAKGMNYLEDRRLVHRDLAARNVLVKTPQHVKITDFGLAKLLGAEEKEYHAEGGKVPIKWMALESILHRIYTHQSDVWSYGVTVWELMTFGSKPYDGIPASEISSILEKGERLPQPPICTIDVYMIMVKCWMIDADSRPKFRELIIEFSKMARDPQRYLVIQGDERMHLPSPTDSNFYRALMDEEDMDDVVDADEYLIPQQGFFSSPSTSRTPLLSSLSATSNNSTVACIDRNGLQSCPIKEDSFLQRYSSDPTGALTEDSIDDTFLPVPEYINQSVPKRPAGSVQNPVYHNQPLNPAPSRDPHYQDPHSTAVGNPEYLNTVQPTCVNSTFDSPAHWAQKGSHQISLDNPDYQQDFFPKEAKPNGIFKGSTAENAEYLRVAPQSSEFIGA
Assay: EGFR^T790M kinase inhibitory assay
Remember the convention: pIC50 equals -log10 of concentration in molar.

Reference set, count: 5
compound: NC(=O)N1N=C(N)C(N=Nc2ccc(N=Nc3ccccc3)cc2)C1=O (stereo not shown)
measure: pIC50
result: 6.05

compound: N#Cc1nn(-c2ccc(N=Nc3ccccc3)cc2)c(=S)n(-c2ccccc2)c1=O
measure: pIC50
result: 6.30

compound: NC1=NN(c2ccccc2)C(=O)C1=NNc1ccc(N=Nc2ccccc2)cc1
measure: pIC50
result: 6.40

compound: N#Cc1nn(-c2ccc(N=Nc3ccccc3)cc2)c(=N)[nH]c1=O
measure: pIC50
result: 5.82

compound: N#Cc1nn(-c2ccc(N=Nc3ccccc3)cc2)c(=N)n(S(=O)(=O)c2ccc(N)cc2)c1=O
measure: pIC50
result: 6.60

Name the reported pIC50 value associated with the compound N#CC(=NNc1ccc(N=Nc2ccccc2)cc1)c1nc(=S)[nH][nH]1
5.87

# repeat for NC1=NNC(=O)C1=NNc1ccc(N=Nc2ccccc2)cc1
5.92

====

System: HCT-116
Assay: MTT anti-proliferative assay, HCT-116
Type: cell-based
Conditions: Homo sapiens, HCT-116, 72 h, read-out: IC50 HCT116
Recorded pIC50 by entry
Remember the convention: pIC50 equals -log10 of concentration in molar.

structure_string: NC1=NN(c2ccccc2)C(=O)C1=NNc1ccc(N=Nc2ccccc2)cc1
result: 5.09

Param readout = pIC50; param system = HCT-116; param query = N#Cc1nn(-c2ccc(N=Nc3ccccc3)cc2)c(=O)[nH]c1=O ; response: value
4.65

Then this compound: NC1=NOC(=O)C1=NNc1ccc(N=Nc2ccccc2)cc1
4.78

# repeat for N#Cc1nn(-c2ccc(N=Nc3ccccc3)cc2)c(=N)n(S(=O)(=O)c2ccc(N)cc2)c1=O
5.07

Repeat for the following compound: N#CC(=NNc1ccc(N=Nc2ccccc2)cc1)c1nc(=S)[nH][nH]1
4.78

====

Quick record of IC50 values for VEGFR-2 (Homo sapiens).
Unit nM implied. Number only.

Examples with their reported IC50 follow.
molecule: NC1=NN(c2ccc([N+](=O)[O-])cc2[N+](=O)[O-])C(=O)C1=NNc1ccc(N=Nc2ccccc2)cc1
result: 1600
//
molecule: N#CC(=NNc1ccc(N=Nc2ccccc2)cc1)c1nc(=S)[nH][nH]1
result: 2000
//
molecule: NC1=NN(c2ccccc2)C(=O)C1=NNc1ccc(N=Nc2ccccc2)cc1
result: 1250
//
molecule: N#Cc1nn(-c2ccc(N=Nc3ccccc3)cc2)c(=O)[nH]c1=O
result: 3500
//
molecule: NC(=O)N1N=C(N)C(N=Nc2ccc(N=Nc3ccccc3)cc2)C1=O (centres unmarked)
result: 2350
//
molecule: N#Cc1nn(-c2ccc(N=Nc3ccccc3)cc2)c(=S)n(-c2ccccc2)c1=O
result: 1500
//
molecule: NC1=NNC(=O)C1=NNc1ccc(N=Nc2ccccc2)cc1
result: 1850
//
molecule: N#Cc1nn(-c2ccc(N=Nc3ccccc3)cc2)c(=S)[nH]c1=O
result: 3850
//
molecule: N#Cc1nn(-c2ccc(N=Nc3ccccc3)cc2)c(=N)n(S(=O)(=O)c2ccc(N)cc2)c1=O
result: 950
//
molecule: N#Cc1nn(-c2ccc(N=Nc3ccccc3)cc2)c(=N)[nH]c1=O
result: 3350

Continue with the molecule presented below.
Look at this molecule and give its reported IC50. NC1=NOC(=O)C1=NNc1ccc(N=Nc2ccccc2)cc1
3250

Measured values drawn from paper PMC10695193 for this set.
